- System: LNCaP tumor-bearing male CB-17 SCID mice
- method-description: Biodistribution 1 h p.i. with competition (co-injection of 2-PMPA)
- Assay type: in vivo
- test-context: co-injected with 2-PMPA (8 mg/kg), n = 3
observation-type: Biodistribution Blood (% ID/g)
The answer is to be given in % ID/g; state only the numeric part.

Some compounds with recorded Biodistribution Blood:
CC(C)(C)[Si]([18F])(c1ccc(C(=O)NC[C@H](NC(=O)CC[C@@H](C(=O)O)N2CCN(CC(=O)[O-])CCN(CC(=O)[O-])CCN(CC(=O)[O-])CC2)C(=O)N[C@H](CCCCNC(=O)CCC(=O)NCCC[C@@H](NC(=O)CC[C@H](NC(=O)N[C@@H](CCC(=O)O)C(=O)O)C(=O)O)C(=O)O)C(=O)O)cc1)C(C)(C)C.[Ga+3] [[^18F, ^natGa]rhPSMA-7.4]: 0.82
CC(C)(C)[Si]([18F])(c1ccc(C(=O)NC[C@H](NC(=O)CC[C@H](C(=O)O)N2CCN(CC(=O)[O-])CCN(CC(=O)[O-])CCN(CC(=O)[O-])CC2)C(=O)N[C@H](CCCCNC(=O)CCC(=O)NCCC[C@@H](NC(=O)CC[C@H](NC(=O)N[C@@H](CCC(=O)O)C(=O)O)C(=O)O)C(=O)O)C(=O)O)cc1)C(C)(C)C.[Ga+3] [[^18F, ^natGa]rhPSMA-7.2]: 1.1
CC(C)(C)[Si]([18F])(c1ccc(C(=O)NC[C@@H](NC(=O)CC[C@H](C(=O)O)N2CCN(CC(=O)[O-])CCN(CC(=O)[O-])CCN(CC(=O)[O-])CC2)C(=O)N[C@H](CCCCNC(=O)CCC(=O)NCCC[C@@H](NC(=O)CC[C@H](NC(=O)N[C@@H](CCC(=O)O)C(=O)O)C(=O)O)C(=O)O)C(=O)O)cc1)C(C)(C)C.[Ga+3] [[^18F, ^natGa]rhPSMA-7.1]: 0.86

Moving on to another compound below.
Biodistribution Blood reported for this compound CC(C)(C)[Si]([18F])(c1ccc(C(=O)NC[C@@H](NC(=O)CC[C@@H](C(=O)O)N2CCN(CC(=O)[O-])CCN(CC(=O)[O-])CCN(CC(=O)[O-])CC2)C(=O)N[C@H](CCCCNC(=O)CCC(=O)NCCC[C@@H](NC(=O)CC[C@H](NC(=O)N[C@@H](CCC(=O)O)C(=O)O)C(=O)O)C(=O)O)C(=O)O)cc1)C(C)(C)C.[Ga+3] [[^18F, ^natGa]rhPSMA-7.3] : 0.55

====

- Tested on: LNCaP tumor-bearing male CB-17 SCID mice
- method-description: Biodistribution 1 h p.i. with competition (co-injection of 2-PMPA)
- Format: in vivo
- test-context: co-injected with 2-PMPA (8 mg/kg), n = 3
observation-type: Biodistribution Pancreas (% ID/g)
Output spec: scalar in % ID/g, unitless text.

Record CC(C)(C)[Si]([18F])(c1ccc(C(=O)NC[C@H](NC(=O)CC[C@@H](C(=O)O)N2CCN(CC(=O)[O-])CCN(CC(=O)[O-])CCN(CC(=O)[O-])CC2)C(=O)N[C@H](CCCCNC(=O)CCC(=O)NCCC[C@@H](NC(=O)CC[C@H](NC(=O)N[C@@H](CCC(=O)O)C(=O)O)C(=O)O)C(=O)O)C(=O)O)cc1)C(C)(C)C.[Ga+3] [[^18F, ^natGa]rhPSMA-7.4] . Reported Biodistribution Pancreas: 0.18

====

- Test system: LNCaP tumor-bearing male CB-17 SCID mice
- method-description: Biodistribution 1 h p.i.
- Assay type: in vivo
Catalogue of compounds with associated Biodistribution Blood
Numbers only; they are read as % ID/g.

Some compounds with recorded Biodistribution Blood:
CC(C)(C)[Si]([18F])(c1ccc(C(=O)NC[C@@H](NC(=O)CC[C@H](C(=O)O)N2CCN(CC(=O)[O-])CCN(CC(=O)[O-])CCN(CC(=O)[O-])CC2)C(=O)N[C@H](CCCCNC(=O)CCC(=O)NCCC[C@@H](NC(=O)CC[C@H](NC(=O)N[C@@H](CCC(=O)O)C(=O)O)C(=O)O)C(=O)O)C(=O)O)cc1)C(C)(C)C.[Ga+3] [[^18F, ^natGa]rhPSMA-7.1]: 0.53
CC(C)(C)[Si]([18F])(c1ccc(C(=O)NC[C@H](NC(=O)CC[C@H](C(=O)O)N2CCN(CC(=O)[O-])CCN(CC(=O)[O-])CCN(CC(=O)[O-])CC2)C(=O)N[C@H](CCCCNC(=O)CCC(=O)NCCC[C@@H](NC(=O)CC[C@H](NC(=O)N[C@@H](CCC(=O)O)C(=O)O)C(=O)O)C(=O)O)C(=O)O)cc1)C(C)(C)C.[Ga+3] [[^18F, ^natGa]rhPSMA-7.2]: 0.56
CC(C)(C)[Si]([18F])(c1ccc(C(=O)NC[C@H](NC(=O)CC[C@@H](C(=O)O)N2CCN(CC(=O)[O-])CCN(CC(=O)[O-])CCN(CC(=O)[O-])CC2)C(=O)N[C@H](CCCCNC(=O)CCC(=O)NCCC[C@@H](NC(=O)CC[C@H](NC(=O)N[C@@H](CCC(=O)O)C(=O)O)C(=O)O)C(=O)O)C(=O)O)cc1)C(C)(C)C.[Ga+3] [[^18F, ^natGa]rhPSMA-7.4]: 1.15

Biodistribution Blood measured on CC(C)(C)[Si]([18F])(c1ccc(C(=O)NC[C@@H](NC(=O)CC[C@@H](C(=O)O)N2CCN(CC(=O)[O-])CCN(CC(=O)[O-])CCN(CC(=O)[O-])CC2)C(=O)N[C@H](CCCCNC(=O)CCC(=O)NCCC[C@@H](NC(=O)CC[C@H](NC(=O)N[C@@H](CCC(=O)O)C(=O)O)C(=O)O)C(=O)O)C(=O)O)cc1)C(C)(C)C.[Ga+3] [[^18F, ^natGa]rhPSMA-7.3] = 0.96

====

- Test system: LNCaP tumor-bearing male CB-17 SCID mice
- method-description: Biodistribution 1 h p.i.
- Format: in vivo
Biodistribution Liver for assorted molecules
Answer format: numeric, % ID/g implied, no suffix.

See these solved cases before continuing.
CC(C)(C)[Si]([18F])(c1ccc(C(=O)NC[C@H](NC(=O)CC[C@@H](C(=O)O)N2CCN(CC(=O)[O-])CCN(CC(=O)[O-])CCN(CC(=O)[O-])CC2)C(=O)N[C@H](CCCCNC(=O)CCC(=O)NCCC[C@@H](NC(=O)CC[C@H](NC(=O)N[C@@H](CCC(=O)O)C(=O)O)C(=O)O)C(=O)O)C(=O)O)cc1)C(C)(C)C.[Ga+3] [[^18F, ^natGa]rhPSMA-7.4]: 0.69
CC(C)(C)[Si]([18F])(c1ccc(C(=O)NC[C@@H](NC(=O)CC[C@H](C(=O)O)N2CCN(CC(=O)[O-])CCN(CC(=O)[O-])CCN(CC(=O)[O-])CC2)C(=O)N[C@H](CCCCNC(=O)CCC(=O)NCCC[C@@H](NC(=O)CC[C@H](NC(=O)N[C@@H](CCC(=O)O)C(=O)O)C(=O)O)C(=O)O)C(=O)O)cc1)C(C)(C)C.[Ga+3] [[^18F, ^natGa]rhPSMA-7.1]: 0.75
CC(C)(C)[Si]([18F])(c1ccc(C(=O)NC[C@H](NC(=O)CC[C@H](C(=O)O)N2CCN(CC(=O)[O-])CCN(CC(=O)[O-])CCN(CC(=O)[O-])CC2)C(=O)N[C@H](CCCCNC(=O)CCC(=O)NCCC[C@@H](NC(=O)CC[C@H](NC(=O)N[C@@H](CCC(=O)O)C(=O)O)C(=O)O)C(=O)O)C(=O)O)cc1)C(C)(C)C.[Ga+3] [[^18F, ^natGa]rhPSMA-7.2]: 0.35

Moving on to the next molecule.
Documented Biodistribution Liver of CC(C)(C)[Si]([18F])(c1ccc(C(=O)NC[C@@H](NC(=O)CC[C@@H](C(=O)O)N2CCN(CC(=O)[O-])CCN(CC(=O)[O-])CCN(CC(=O)[O-])CC2)C(=O)N[C@H](CCCCNC(=O)CCC(=O)NCCC[C@@H](NC(=O)CC[C@H](NC(=O)N[C@@H](CCC(=O)O)C(=O)O)C(=O)O)C(=O)O)C(=O)O)cc1)C(C)(C)C.[Ga+3] [[^18F, ^natGa]rhPSMA-7.3] : 0.69

====

- Tested on: LNCaP tumor-bearing male CB-17 SCID mice
- method-description: Biodistribution 1 h p.i.
- Format: in vivo
Let's look at some compounds and their measured Biodistribution Tumor.
Give the number; % ID/g is assumed, so skip it.

Past entries and their recorded results:
CC(C)(C)[Si]([18F])(c1ccc(C(=O)NC[C@@H](NC(=O)CC[C@@H](C(=O)O)N2CCN(CC(=O)[O-])CCN(CC(=O)[O-])CCN(CC(=O)[O-])CC2)C(=O)N[C@H](CCCCNC(=O)CCC(=O)NCCC[C@@H](NC(=O)CC[C@H](NC(=O)N[C@@H](CCC(=O)O)C(=O)O)C(=O)O)C(=O)O)C(=O)O)cc1)C(C)(C)C.[Ga+3] [[^18F, ^natGa]rhPSMA-7.3]: 18.3
CC(C)(C)[Si]([18F])(c1ccc(C(=O)NC[C@H](NC(=O)CC[C@@H](C(=O)O)N2CCN(CC(=O)[O-])CCN(CC(=O)[O-])CCN(CC(=O)[O-])CC2)C(=O)N[C@H](CCCCNC(=O)CCC(=O)NCCC[C@@H](NC(=O)CC[C@H](NC(=O)N[C@@H](CCC(=O)O)C(=O)O)C(=O)O)C(=O)O)C(=O)O)cc1)C(C)(C)C.[Ga+3] [[^18F, ^natGa]rhPSMA-7.4]: 18.9
CC(C)(C)[Si]([18F])(c1ccc(C(=O)NC[C@@H](NC(=O)CC[C@H](C(=O)O)N2CCN(CC(=O)[O-])CCN(CC(=O)[O-])CCN(CC(=O)[O-])CC2)C(=O)N[C@H](CCCCNC(=O)CCC(=O)NCCC[C@@H](NC(=O)CC[C@H](NC(=O)N[C@@H](CCC(=O)O)C(=O)O)C(=O)O)C(=O)O)C(=O)O)cc1)C(C)(C)C.[Ga+3] [[^18F, ^natGa]rhPSMA-7.1]: 14.1

Consider the record given below.
Biodistribution Tumor on LNCaP tumor-bearing male CB-17 SCID mice for CC(C)(C)[Si]([18F])(c1ccc(C(=O)NC[C@H](NC(=O)CC[C@H](C(=O)O)N2CCN(CC(=O)[O-])CCN(CC(=O)[O-])CCN(CC(=O)[O-])CC2)C(=O)N[C@H](CCCCNC(=O)CCC(=O)NCCC[C@@H](NC(=O)CC[C@H](NC(=O)N[C@@H](CCC(=O)O)C(=O)O)C(=O)O)C(=O)O)C(=O)O)cc1)C(C)(C)C.[Ga+3] [[^18F, ^natGa]rhPSMA-7.2] is 6.5

The measured values listed here are drawn from paper PMC7721954.
